Examples of binders with documented pIC50 follow.
assayTarget: T1, full length human OX40L expressed on CHO cells (human, UniProt P23510 1-183)
T1 construct: CHO K1 stably transfected as described for CAKI cells; also called CHO-hOX40L; hOX40L expressing CHO cells
T1 sequence: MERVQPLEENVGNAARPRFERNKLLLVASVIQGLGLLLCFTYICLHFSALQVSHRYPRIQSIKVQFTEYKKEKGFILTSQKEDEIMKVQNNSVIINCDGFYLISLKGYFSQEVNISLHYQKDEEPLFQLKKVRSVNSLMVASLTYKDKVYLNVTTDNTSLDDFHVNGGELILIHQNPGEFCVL
assayExplanation: competition FACS, 3.1 nM hOX40/Fc on hOX40L expressing cells
Keep it numeric: pIC50 is minus log10 of the concentration in mol/L.

OX40L15B07 (VHH, monovalent Nanobody from E. coli; not shown: C-terminal c-myc and His6 tag) VHH: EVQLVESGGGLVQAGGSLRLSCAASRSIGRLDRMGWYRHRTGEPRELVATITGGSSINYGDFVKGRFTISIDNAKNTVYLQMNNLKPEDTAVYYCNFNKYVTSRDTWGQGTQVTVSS ... 8.79
OX40L19D08 (VHH, monovalent Nanobody from E. coli; not shown: C-terminal c-myc and His6 tag) VHH: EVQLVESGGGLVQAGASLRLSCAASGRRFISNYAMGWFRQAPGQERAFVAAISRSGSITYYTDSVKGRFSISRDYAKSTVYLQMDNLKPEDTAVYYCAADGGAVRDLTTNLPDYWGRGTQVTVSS ... 8.48
OX40L01E10 (VHH, monovalent Nanobody from E. coli; not shown: C-terminal c-myc and His6 tag) VHH: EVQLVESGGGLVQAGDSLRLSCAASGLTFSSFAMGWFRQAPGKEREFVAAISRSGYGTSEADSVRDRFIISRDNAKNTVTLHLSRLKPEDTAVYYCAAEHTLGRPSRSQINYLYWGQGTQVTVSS ... 8.04

Now for another entry.
Prompt: Find the recorded pIC50 belonging to OX40L01B11 (VHH, monovalent Nanobody from E. coli; not shown: C-terminal c-myc and His6 tag) VHH: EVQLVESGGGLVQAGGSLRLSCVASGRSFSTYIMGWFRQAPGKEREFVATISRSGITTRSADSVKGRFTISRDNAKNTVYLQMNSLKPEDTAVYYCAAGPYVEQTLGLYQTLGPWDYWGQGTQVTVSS and report it.
Response: 8.25
